System: Sprague-Dawley rats
Settings: continuous infusion, 2 times the MIR
Description: Adult male Sprague-Dawley rats with body weight ranging from 250 to 300 gm were selected for continuous infusion test. […] Time to recovery of righting reflex from stopping infusion, and time to fully awake from stopping infusion were recorded.
OBSERVED_PROPERTY: Onset time

Example results:
COC(=O)C1=C(OC(=O)c2ccnn2[C@H](C)c2ccccc2)CCC1 ... 5 to 6 min
C=C=CC1(OC(=O)c2cc(F)nn2[C@H](C)c2ccccc2)COC1 ... 5 to 6 min
CC(=O)C1=C(OC(=O)c2c(F)cnn2[C@H](C)c2ccccc2)CCC1 ... 5 to 6 min

Ask: Requested read-out: Onset time. Entry: C=C=CC1(OC(=O)c2ccnn2[C@H](C)c2ccccc2)COC1
Result: 4 to 5 min

Ask: So what does the record say about Onset time for CCOC(=O)c1cncn1C(C)c1ccccc1 (stereo not shown) [Etomidate, reference compound] ?
Result: 4 to 5 min

Ask: I'd like to know its Onset time. The molecule in question is C=C=CC(C)(C)OC(=O)c1ccnn1[C@H](C)c1ccccc1
Result: 6 to 7 min

---

Parameter Minimal lethal dose: see the listing below.
tested on: Sprague-Dawley rats; assay: animal or person; settings: rats

# count of solved cases: 5
C[C@H](c1ccccc1)n1nnc(I)c1C(=O)OC1(C)COC1 ... >30 mg/kg
CCOC(=O)c1c(Cl)nnn1[C@H](C)c1ccccc1 ... >9 mg/kg
CC(C)O[C@H]1C[C@@H](OC(=O)c2cnnn2[C@H](C)c2ccccc2)C1 ... >12 mg/kg
CCSC(=O)c1c(Br)nnn1[C@H](C)c1ccccc1 ... >15 mg/kg
C=C=CC1(OC(=O)c2c(I)nnn2[C@H](C)c2ccccc2)CCCCC1 ... >12 mg/kg

Ask: Checklist item: Minimal lethal dose tested on Sprague-Dawley rats, entry C[C@H](c1ccccc1)n1nnc(I)c1C(=O)OC1CC1 , value?
Result: >24 mg/kg

Ask: Please tell me: Minimal lethal dose of C[C@H](c1ccccc1)n1nncc1C(=O)OC(C)(C)C , system Sprague-Dawley rats?
Result: >5 mg/kg

Ask: Can you look up Minimal lethal dose on Sprague-Dawley rats for CC=CC1(OC(=O)c2cnnn2C(C)c2ccccc2)COC1 (mixture of isomers) ?
Result: >8 mg/kg

Ask: Provide value of Minimal lethal dose for this record tested with Sprague-Dawley rats: COC(=O)C1(OC(=O)c2c(Br)nnn2[C@H](C)c2ccccc2)CC1
Result: >20 mg/kg

Ask: Under Sprague-Dawley rats: Minimal lethal dose value of C[C@H](c1ccccc1)n1nnc(I)c1C(=O)OCC1CC1 ?
Result: >14 mg/kg

Ask: Param readout= Minimal lethal dose; system= Sprague-Dawley rats; entry= CCOC(=O)c1nnn([C@H](C)c2ccccc2)c1Br ; returns value.
Result: >18 mg/kg

Ask: Test system Sprague-Dawley rats; read-out Minimal lethal dose; what value for COC(=O)C1=C(OC(=O)c2cnnn2[C@H](C)c2ccccc2)CCCC1 ?
Result: >10 mg/kg

Ask: Query Minimal lethal dose on Sprague-Dawley rats for CC(=O)C1=C(OC(=O)c2cnnn2[C@H](C)c2ccccc2)CCCC1
Result: >9 mg/kg

Ask: Please tell me: Minimal lethal dose of CC(C)OC(=O)c1cnnn1[C@H](C)c1ccccc1 , system Sprague-Dawley rats?
Result: >16 mg/kg
